Reference source: PubChem BioAssay AID1963834

System: 873145-292-R-J1-PDC complex spheroid viability;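 further: luminescence signal used as surrogate for viable cell content; spheroids exposed to compounds for 7 days before viability readout; 100% = DMSO vehicle control viability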
Experiment: Anticancer human tumor 873145-292-R-J1-PDC patient-derived renal clear cell carcinoma cell line growth inhibition [POLQ]
Settings: second compound 10 µM; first compound 0.01 µM; hits give low values
Readout Type: viability, T/C (%)
State just the number; it will be interpreted in %.

| Molecule | viability, T/C [%] |
| --- | --- |
| COc1cccc(OCCCN)c1-c1cc(Nc2cnc(C#N)cn2)n[nH]1 + Cc1cccc(N(C)C(=O)C2C(O)CCN2c2nc(C)cc(C(F)(F)F)c2C#N)c1 | 93.6 |
| CCc1c2c(nc3ccc(O)cc13)-c1cc3c(c(=O)n1C2)COC(=O)[C@]3(O)CC + Nc1ccc(C#CCN(C(=O)Cc2ncc(C(F)(F)F)cc2C(F)(F)F)c2ccc(F)cc2)nn1 | 94.5 |
| C=CCn1c(=O)c2cnc(Nc3ccc(N4CCN(C)CC4)cc3)nc2n1-c1cccc(C(C)(C)O)n1 + COC1C(OC(N)=O)C(O)C(Oc2ccc3c(O)c(NC(=O)c4ccc(O)c(CC=C(C)C)c4)c(=O)oc3c2C)OC1(C)C | 92.1 |
| COc1cccc(OCCCN)c1-c1cc(Nc2cnc(C#N)cn2)n[nH]1 + Nc1ccc(C#CCN(C(=O)Cc2ncc(C(F)(F)F)cc2C(F)(F)F)c2ccc(F)cc2)nn1 | 90.3 |

Indicate its recorded viability, T/C; the molecule in question is CCc1c2c(nc3ccc(O)cc13)-c1cc3c(c(=O)n1C2)COC(=O)[C@]3(O)CC + Cc1cccc(N(C)C(=O)C2C(O)CCN2c2nc(C)cc(C(F)(F)F)c2C#N)c1
65.6

Indicate its recorded viability, T/C; the molecule in question is Cn1ncnc1[C@H]1c2n[nH]c(=O)c3cc(F)cc(c23)N[C@@H]1c1ccc(F)cc1 + Cc1cccc(N(C)C(=O)C2C(O)CCN2c2nc(C)cc(C(F)(F)F)c2C#N)c1
90.3

Indicate its recorded viability, T/C; the molecule in question is CC[C@@]1(O)C(=O)OCc2c1cc1n(c2=O)Cc2cc3c(CN(C)C)c(O)ccc3nc2-1 + Nc1ccc(C#CCN(C(=O)Cc2ncc(C(F)(F)F)cc2C(F)(F)F)c2ccc(F)cc2)nn1
119

Indicate its recorded viability, T/C; the molecule in question is Cn1ncnc1[C@H]1c2n[nH]c(=O)c3cc(F)cc(c23)N[C@@H]1c1ccc(F)cc1 + COC1C(OC(N)=O)C(O)C(Oc2ccc3c(O)c(NC(=O)c4ccc(O)c(CC=C(C)C)c4)c(=O)oc3c2C)OC1(C)C
90.9
